assay: Half life in C57BL/6J mouse at 20 mg/kg, po measured up to 8 hrs
Type: ADME, organism-based
Design: time < 8 hr, dose 20 mg/kg, route oral
reported-conditions: in vivo
quantity-measured: AUC at 8 h (µg·h/mL)
Give just the number in µg·h/mL; leave the unit off.

Request: Return reported AUC at 8 h. Input molecule: COc1ccc(C(=O)Nc2ncc(Cc3cccc(OC(F)(F)F)c3)s2)cc1OCCO
Result: 4.9

Request: Return reported AUC at 8 h. Input molecule: COc1ccc(C(=O)Nc2ncc(Cc3cccc(Cl)c3)s2)cc1OCCO
Result: 10

Request: Return reported AUC at 8 h. Input molecule: COc1ccc(C(=O)Nc2ncc(Cc3ccc(F)c(C(F)(F)F)c3)s2)cc1OCCO
Result: 2

Request: Return reported AUC at 8 h. Input molecule: COc1ccc(C(=O)Nc2ncc(Cc3ccc(F)c(Cl)c3)s2)cc1OCCO
Result: 14
